Taken from ChEMBL document CHEMBL4689842.

tested on: U2OS; assay: Multiplex assay against U2OS; assay type: toxicity, cell-based; conditions: human, 48 h, 1 µM, compound concentration 1 uM, replicate 1
Result Type: Population Fragmented Nuclei (%)
Answer format: numeric, % implied, no suffix.

-- ask Quote Population Fragmented Nuclei (%) reported for Cc1[nH]c(/C=C2\C(=O)Nc3ccc(S(=O)(=O)N(C)c4cccc(Cl)c4)cc32)c(C)c1C(=O)N1CCN(C)CC1 please.
-- reply 18

-- ask Quote Population Fragmented Nuclei (%) reported for CN(C)C(=O)N[C@H]1CC[C@H](CCN2CCN(c3cccc(Cl)c3Cl)CC2)CC1.Cl [CARIPRAZINE HYDROCHLORIDE] please.
-- reply 9

-- ask Quote Population Fragmented Nuclei (%) reported for CC[C@H](C)C(=O)O[C@H]1C[C@@H](C)C=C2C=C[C@H](C)[C@H](CC[C@@H]3C[C@@H](O)CC(=O)O3)[C@H]21 please.
-- reply 4

-- ask Quote Population Fragmented Nuclei (%) reported for COc1ncc(-c2ccc3nccc(-c4ccnnc4)c3c2)cc1NS(=O)(=O)c1ccc(F)cc1F please.
-- reply 23

-- ask Quote Population Fragmented Nuclei (%) reported for Cc1csc2c(N[C@@H](C)CN3CCN(S(=O)(=O)c4ccc(Cl)c(Cl)c4)CC3)ncnc12 please.
-- reply 8

-- ask Quote Population Fragmented Nuclei (%) reported for CNc1nc(NCc2ccc(NS(C)(=O)=O)cc2Cl)cc(-c2ccccn2)n1 please.
-- reply 12

-- ask Quote Population Fragmented Nuclei (%) reported for Cc1nc(-c2ccc(-c3ccc(C(=O)N4CCc5cc6c(cc54)C4(CCN(C)CC4)CO6)cc3)c(C)c2)no1 please.
-- reply 12

-- ask Quote Population Fragmented Nuclei (%) reported for COc1cc(-n2cnc3cc(-c4ccc(Cl)cc4)sc3c2=O)ccc1OCCN1CCCC1 please.
-- reply 10

-- ask Quote Population Fragmented Nuclei (%) reported for C=CC(=O)Nc1cccc(C(=O)Nc2ccc(Nc3cc(-c4[nH]c(SC)nc4C)ccn3)cc2)c1 please.
-- reply 5

-- ask Quote Population Fragmented Nuclei (%) reported for CN1CCCC(n2nc(Cc3ccc(Cl)cc3)c3ccccc3c2=O)CC1.Cl (centres undefined) [AZELASTINE HYDROCHLORIDE] please.
-- reply 15

-- ask Quote Population Fragmented Nuclei (%) reported for C[C@@H](NCCCc1cccc(C(F)(F)F)c1)c1cccc2ccccc12.Cl [CINACALCET HYDROCHLORIDE] please.
-- reply 8

-- ask Quote Population Fragmented Nuclei (%) reported for CN(C)C(=O)/C(C#N)=C/c1ccc(-c2nc3cnc4[nH]ccc4c3n2C2CCCCC2)o1 please.
-- reply 8

-- ask Quote Population Fragmented Nuclei (%) reported for Cc1c(-c2ccc(O)cc2)n(Cc2ccc(OCCN3CCCCCC3)cc2)c2ccc(O)cc12 please.
-- reply 11

-- ask Quote Population Fragmented Nuclei (%) reported for CN1CCN(CCOc2cc(OC3CCOCC3)c3c(Nc4c(Cl)ccc5c4OCO5)ncnc3c2)CC1 please.
-- reply 13

-- ask Quote Population Fragmented Nuclei (%) reported for CN(C)CC#Cc1ccc(OCCCc2sc(N3CCc4cccc(C(=O)Nc5nc6ccccc6s5)c4C3)nc2C(=O)O)c(F)c1 please.
-- reply 24

-- ask Quote Population Fragmented Nuclei (%) reported for Cc1cc(C)cc(-c2cnc3cc(Cl)c(-c4cccc(O)c4)cc3c2OCCCN)c1 please.
-- reply 8

-- ask Quote Population Fragmented Nuclei (%) reported for CC(C)NCC(O)COc1ccc(CCOCC2CC2)cc1.Cl (centres undefined) [BETAXOLOL HYDROCHLORIDE] please.
-- reply 8

-- ask Quote Population Fragmented Nuclei (%) reported for c1cn2cc(-c3ccc4cn[nH]c4c3)nc(Nc3ccc(N4CCOCC4)cc3)c2n1 please.
-- reply 9

-- ask Quote Population Fragmented Nuclei (%) reported for Cn1cc(-c2[nH]c3cc(NC(=O)[C@H](N)C4CCCCC4)cc4c3c2C=NNC4=O)cn1 please.
-- reply 7

-- ask Quote Population Fragmented Nuclei (%) reported for CN1CCN(c2ccc(OC(F)(F)F)c(Nc3ncc4c(n3)-c3c(c(C(N)=O)nn3CCO)CC4)c2)CC1 please.
-- reply 25

-- ask Quote Population Fragmented Nuclei (%) reported for COc1cccc([C@@H](C)NCCCc2ccccc2Cl)c1.Cl [TECALCET HYDROCHLORIDE] please.
-- reply 29

-- ask Quote Population Fragmented Nuclei (%) reported for O=C1NCN(c2ccccc2)C12CCN(CCCOc1ccc(F)cc1)CC2 [SPIRAMIDE] please.
-- reply 9

-- ask Quote Population Fragmented Nuclei (%) reported for Cl.N#Cc1ccc2[nH]cc(CCCCN3CCN(c4ccc5oc(C(N)=O)cc5c4)CC3)c2c1 [VILAZODONE HYDROCHLORIDE] please.
-- reply 10

-- ask Quote Population Fragmented Nuclei (%) reported for CC(C)(O)CNc1ncc(-c2ccnc(Nc3ccnc(Cl)c3)n2)c(CC2CC2)n1 please.
-- reply 6
